# ASSAY PROTOCOL: in vitro
# CONDITIONS USED: human, Jurkat cells (leukemia cell line)
PROPERTY LABEL: viability at 44 h, 1 µM
Please state the value followed by its unit.

Example molecules with recorded viability at 44 h, 1 µM:
Query block: Given CCCCCCC(CCCC(=O)Nc1ccccc1)CCC(=O)NO (racemic) , state its recorded viability at 44 h, 1 µM.
Result block: 69%

Query block: # lookup: viability at 44 h, 1 µM of O=C(CCC(CCCC(=O)Nc1ccccc1)Cc1ccccc1)NO (racemic)
Result block: 89%

Here is the next item to consider.
Query block: So what does the record say about viability at 44 h, 1 µM for CCCCC(CCCC(=O)Nc1ccccc1)CCC(=O)NO (racemic) ?
Result block: 98%
